Tested on: CAKI-1 renal
protocol.text: NCI-60 one-dose screen, 48 h (100 = growth as untreated, 0 = no growth, -100 = all killed)
conditions.used: 10 µM unless noted
Compounds without any hit were thinned out: in the full panel of roughly 83,000, 20% have a hit.
parameter.measured: growth (%)
Dear colleague, please return just the value in %, with no unit written.

These recorded examples may help you get a feel for the data.
CC(=O)O[C@H]1C(=O)[C@@]2(C)[C@H]([C@H](OC(=O)c3ccccc3)[C@]3(O)C[C@H](OC(=O)[C@H](OC(=O)OC[C@@H]4COC(C)(C)O4)[C@@H](NC(=O)c4ccccc4)c4ccccc4)C(C)=C1C3(C)C)[C@]1(OC(C)=O)CO[C@@H]1C[C@@H]2O | 27.4
O=C(Nc1ccc(Br)cc1)c1cc(Br)cc(Br)c1O | -6.11
C=C1[C@@H](C)[C@H]2[C@H](Cc3ccccc3)NC(=O)[C@]23[C@@H](O)/C=C/[C@@](C)(O)C(=O)[C@@H](C)C/C=C/[C@H]3[C@@H]1O | 52.5
CCCCCCCCCCCCCCCCCCOc1ccccc1COP(=O)(O)OOCC[N+](C)(C)C | 1.63
COC(=O)[C@]12CCC(C)(C)C[C@H]1[C@H]1C(=O)C[C@@H]3[C@@]4(C)C[C@@]5(CC(C)(C)[C@@H]4CC[C@@]3(C)[C@]1(C)CC2)OO[C@@](C)(C(F)(F)F)O5 | 68.7

Q) What value of measured growth is listed for `Clc1ccc(CO/N=C(\Cn2ccnc2)c2ccc(Cl)cc2Cl)c(Cl)c1` ?
A) 1.17

Q) Entry `Cc1cc(C)c(CBr)c(C)c1` has what growth?
A) 99.1

Q) Quick one: growth of `CC[C@]12C=CCN3CC[C@]4(C(=C(C(=O)OC)C1)Nc1cc(OC)c(OC(C)=O)cc14)[C@@H]32` ?
A) 21

Q) Query (molecule): C[C@@H]1O[C@@H](O[C@H]2C[C@@H](O)[C@]3(CO)C4C(CC[C@]3(O)C2)[C@@]2(O)CC[C@H](C3=CC(=O)OC3)[C@@]2(C)C[C@H]4O)[C@H](O)[C@H](O)[C@H]1O (stereo partly specified) ; field requested: growth
A) -73.4

Q) Can you look up the measured growth of `COC(=O)[C@@H](C)C[C@H](Cc1ccccc1)NC(=O)c1csc([C@@H](C[C@H](C(C)C)N(C)C(=O)[C@@H](NC(=O)C23CC(NC(C)=O)(C2)C3)C2CC2)OC(C)=O)n1` for me?
A) 95.3

====

Test system: LOX IMVI melanoma
protocol.text: NCI-60 one-dose screen, 48 h (100 = growth as untreated, 0 = no growth, -100 = all killed)
conditions.used: 10 µM unless noted
The panel holds about 83,000 compounds, 20% with a hit somewhere; the sample as a whole holds those more often.
Threshold 40%: growth strictly smaller gives true, otherwise false.

Here's what some known entries look like.
COC(=O)C12CC(NC(=O)c3csc([C@@H](C[C@H](C(C)C)N(C)C(=O)[C@@H](NC(=O)[C@H]4CCCCN4C)C(C)C)OC(C)=O)n3)(C1)C2 | true
COc1cc2c(c(OC)c1OC)-c1ccc([O-])c(=O)cc1[C@@H](NC(C)=O)CC2.COc1cc2c(c(OC)c1OC)-c1ccc([O-])c(=O)cc1[C@@H](NC(C)=O)CC2.[Cu+2] | true
CCCCCCC(=O)NC1=C(N2CC2)C(=O)C(NC(=O)CCCCCC)=C(N2CC2)C1=O | true
O=[N+]([O-])c1cc([N+](=O)[O-])c(Nn2c3ccccc3c3ccccc32)c([N+](=O)[O-])c1 | true

Q) Input `CCCC(=O)O[C@@H]1C[C@H]2C[C@@H](O[C@@H]3O[C@@H](C)[C@@H](O)[C@@H](O)[C@H]3OC)C[C@@H](C[C@@H](C)/C=C/C=C\C[C@@H]3O[C@@H](C[C@@H]3C)[C@@H](O)C[C@H]3C[C@@]1(O)C(=O)O3)O2` ; condition: growth strictly below 40%. Does it hold?
A) false

Q) Field: below-cutoff. Rule: recorded growth strictly less than 40%. Subject: `CC(=O)[O][Hg][O]C(C)=O`
A) false

Q) Check if growth falls below 40% for CCC1CN1CCCCN1CC1CC (configuration not stated) .
A) false

// data source = PubChem BioAssay (NCI)
